Provenance of the data: patent US8669072B2

- TEST TARGET: Bombyx mori EcR (VBE) (Bombyx mori, UniProt P49881)
- Construct: expressed in transfected cells; host or cells: Human HEK-293 cells, retrovirally infected, clone Z3
- Sequence (P49881 86-606 limits assumed): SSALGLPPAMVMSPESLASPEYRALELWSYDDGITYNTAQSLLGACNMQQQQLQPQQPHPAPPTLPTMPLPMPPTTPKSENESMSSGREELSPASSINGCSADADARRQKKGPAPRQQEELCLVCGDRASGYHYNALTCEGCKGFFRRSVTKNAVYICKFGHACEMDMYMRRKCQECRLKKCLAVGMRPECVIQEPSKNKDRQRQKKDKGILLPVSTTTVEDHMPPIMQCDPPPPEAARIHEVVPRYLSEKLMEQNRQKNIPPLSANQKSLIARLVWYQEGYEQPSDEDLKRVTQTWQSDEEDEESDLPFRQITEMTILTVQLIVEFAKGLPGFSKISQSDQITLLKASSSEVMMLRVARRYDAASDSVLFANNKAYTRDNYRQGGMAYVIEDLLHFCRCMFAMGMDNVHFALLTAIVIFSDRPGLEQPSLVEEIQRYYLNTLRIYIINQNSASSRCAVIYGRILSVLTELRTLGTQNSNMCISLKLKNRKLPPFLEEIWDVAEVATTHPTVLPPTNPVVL
- Sequence (P19793 whole entry partner): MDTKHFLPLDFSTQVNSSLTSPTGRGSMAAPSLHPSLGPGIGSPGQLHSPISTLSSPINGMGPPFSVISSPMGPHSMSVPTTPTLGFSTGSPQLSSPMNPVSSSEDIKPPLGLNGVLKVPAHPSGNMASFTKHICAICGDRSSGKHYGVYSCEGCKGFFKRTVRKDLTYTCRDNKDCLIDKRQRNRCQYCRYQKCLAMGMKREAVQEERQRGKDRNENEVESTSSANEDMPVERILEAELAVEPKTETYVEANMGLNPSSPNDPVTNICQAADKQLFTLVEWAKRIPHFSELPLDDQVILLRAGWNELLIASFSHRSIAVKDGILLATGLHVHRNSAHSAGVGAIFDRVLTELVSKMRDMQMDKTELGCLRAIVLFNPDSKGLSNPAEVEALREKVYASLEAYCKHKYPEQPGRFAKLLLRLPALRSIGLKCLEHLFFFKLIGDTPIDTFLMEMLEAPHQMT
- ASSAY EXPLANATION: Z3 assay: β-galactosidase reporter gene induction in HEK-293 clone Z3 (CVBE / 6XEcRE LacZ)
- Format: cell-based
- CONDITION DESCRIPTION: 33 μM ligand, 48 h, RLU relative to DMSO
Please provide measured Fold Induction Average, Z3 assay for the entries that follow.
When you answer, write just the number.

Prompt: Name the reported Fold Induction Average, Z3 assay value associated with the compound `Cc1cc(C)cc(C2=NOC3(CCCC3)N2NC(=O)Cc2ccccc2)c1`
Response: 8.9

Prompt: Name the reported Fold Induction Average, Z3 assay value associated with the compound `CCOC(=O)CCC(=O)NN1C(c2ccc(OC)cc2OC)=NOC1(C)C`
Response: 0.2

Prompt: Name the reported Fold Induction Average, Z3 assay value associated with the compound `COc1ccccc1C1=NOC(C)(C)N1NC(=O)COCc1ccccc1`
Response: 0.7

Prompt: Name the reported Fold Induction Average, Z3 assay value associated with the compound `Cc1cc(C)cc(C2=NOC3(CCOCC3)N2NC(=O)COCc2ccccc2)c1`
Response: 0.8

Prompt: Name the reported Fold Induction Average, Z3 assay value associated with the compound `COc1ccc(C2=NOC(C)(C)N2NC(=O)COc2ccccc2)c(OC)c1`
Response: 0.6

Prompt: Name the reported Fold Induction Average, Z3 assay value associated with the compound `CCc1c(OC)cccc1C(=O)NN1C(c2cc(C)cc(C)c2)=NOC12CCOCC2`
Response: 567.3

Prompt: Name the reported Fold Induction Average, Z3 assay value associated with the compound `CC1(C)ON=C(c2ccc(Cl)cc2)N1NC(=O)c1ccco1`
Response: 0.8

Prompt: Name the reported Fold Induction Average, Z3 assay value associated with the compound `CC1(C)ON=C(c2cccc(C(F)(F)F)c2)N1NC(=O)COCc1ccccc1`
Response: 0.5

Prompt: Name the reported Fold Induction Average, Z3 assay value associated with the compound `COc1ccc(C2=NOC(C)(C)N2NC(=O)Cc2ccccc2)c(OC)c1`
Response: 0.4

Prompt: Name the reported Fold Induction Average, Z3 assay value associated with the compound `CC1(C)ON=C(c2cccc(C(F)(F)F)c2)N1NC(=O)Nc1ccccc1`
Response: 0.3

----------
- TEST TARGET: GAL4 DBD (1-147)-CfEcR(DEF)/VP16AD-βRXREF-LmUSPEF (Choristoneura fumiferana, UniProt O77240)
- Construct: The wild-type D, E, and F domains from spruce budworm Choristoneura fumiferana EcR (“CfEcR-DEF”)
- ASSAY EXPLANATION: cell-based
- CONDITION DESCRIPTION: maximum fold induction relative to that of GS-E ligand
- Method: Stably transfected cells were selected by Zeocin resistance. Individually isolated CHO cell clones were transiently transfected with a GAL4 RE-luciferase reporter (pFR Luc). 27-63 clone was selected using Hygromycin. […] Luciferase reporter gene expression was measured 48 h after cell treatment using Bright-Glo™ Luciferase Assay System from Promega (E2650). Luminescence was detected at room temperature using a Dynex MLX microtiter plate luminometer. […]
Please provide measured Rel Max FI, 27-63 assay for the entries that follow.
When you answer, write just the number.

Prompt: Name the reported Rel Max FI, 27-63 assay value associated with the compound `CCc1ccc(C(=O)NN2C(c3cc(C)cc(C)c3)=NOC23CCCC3)cc1`
Response: 0.13

Prompt: Name the reported Rel Max FI, 27-63 assay value associated with the compound `CCc1c(OC)cccc1C(=O)NN1C(c2ccc(Cl)cc2)=NOC1(C)C`
Response: 0.64

Prompt: Name the reported Rel Max FI, 27-63 assay value associated with the compound `CCc1ccc(C(=O)NN2C(c3ccc(OC)cc3OC)=NOC2(C)C)cc1`
Response: 0

Prompt: Name the reported Rel Max FI, 27-63 assay value associated with the compound `CCc1c(OC)cccc1C(=O)NN1C(c2cc(C)cc(C)c2)=NOC12CCCC2`
Response: 1.58

Prompt: Name the reported Rel Max FI, 27-63 assay value associated with the compound `CCc1ccc(C(=O)NN2C(c3ccccc3)=NOC23CCCC3)c(F)c1`
Response: 0.5

Prompt: Name the reported Rel Max FI, 27-63 assay value associated with the compound `CCc1ccc(C(=O)NN2C(c3ccccc3)=NOC23CCOCC3)cc1`
Response: 0

Prompt: Name the reported Rel Max FI, 27-63 assay value associated with the compound `Cc1cc(C)cc(C2=NOC(C)(C)N2NC(=O)c2cccc(F)c2)c1`
Response: 0

Prompt: Name the reported Rel Max FI, 27-63 assay value associated with the compound `CCc1c(OC)cccc1C(=O)NN1C(c2ccc(OC)cc2OC)=NOC1(C)C`
Response: 0

Prompt: Name the reported Rel Max FI, 27-63 assay value associated with the compound `CCc1ccc(C(=O)NN2C(c3ccccc3OC)=NOC2(C)C)cc1`
Response: 0

Prompt: Name the reported Rel Max FI, 27-63 assay value associated with the compound `CCc1ccc(C(=O)NN2C(c3ccc4c(c3)OCO4)=NOC2(C)C)cc1`
Response: 0

Prompt: Name the reported Rel Max FI, 27-63 assay value associated with the compound `CCc1c(OC)cccc1C(=O)NN1C(c2ccccc2OC)=NOC1(C)C`
Response: 0.71

Prompt: Name the reported Rel Max FI, 27-63 assay value associated with the compound `CCc1c(OC)cccc1C(=O)NN1C(c2ccc(OC(F)(F)F)cc2)=NOC1(C)C`
Response: 0

Prompt: Name the reported Rel Max FI, 27-63 assay value associated with the compound `Cc1cc(C)cc(C2=NOC(C)(C)N2NC(=O)c2ccc(Cl)cc2)c1`
Response: 0

Prompt: Name the reported Rel Max FI, 27-63 assay value associated with the compound `CCc1c(OC)cccc1C(=O)NN1C(c2ccccc2)=NOC12CCOCC2`
Response: 0

Prompt: Name the reported Rel Max FI, 27-63 assay value associated with the compound CCc1c(OC)cccc1C(=O)NN1C(c2cc(C)cc(C)c2)=NOC1(C)CC (stereo not shown)
Response: 1.11

Prompt: Name the reported Rel Max FI, 27-63 assay value associated with the compound COc1cccc(C(=O)NN2C(c3cc(C)cc(C)c3)=NOC23CCc2ccccc2C3)c1C (stereo not shown)
Response: 0

Prompt: Name the reported Rel Max FI, 27-63 assay value associated with the compound `COc1cccc(C(=O)NN2C(c3ccccc3)=NOC2(C)C)c1C`
Response: 0

Prompt: Name the reported Rel Max FI, 27-63 assay value associated with the compound CCC1(C)ON=C(c2ccccc2)N1NC(=O)c1ccccc1 (stereo not shown)
Response: 0

Prompt: Name the reported Rel Max FI, 27-63 assay value associated with the compound `CCc1c(OC)cccc1C(=O)NN1C(c2ccc3c(c2)OCO3)=NOC1(C)C`
Response: 0

----------
- TEST TARGET: CfEcR (CDEF)/CfUSP, GST fusion protein (Choristoneura fumiferana)
- Sequence (O77240 entry or part of it): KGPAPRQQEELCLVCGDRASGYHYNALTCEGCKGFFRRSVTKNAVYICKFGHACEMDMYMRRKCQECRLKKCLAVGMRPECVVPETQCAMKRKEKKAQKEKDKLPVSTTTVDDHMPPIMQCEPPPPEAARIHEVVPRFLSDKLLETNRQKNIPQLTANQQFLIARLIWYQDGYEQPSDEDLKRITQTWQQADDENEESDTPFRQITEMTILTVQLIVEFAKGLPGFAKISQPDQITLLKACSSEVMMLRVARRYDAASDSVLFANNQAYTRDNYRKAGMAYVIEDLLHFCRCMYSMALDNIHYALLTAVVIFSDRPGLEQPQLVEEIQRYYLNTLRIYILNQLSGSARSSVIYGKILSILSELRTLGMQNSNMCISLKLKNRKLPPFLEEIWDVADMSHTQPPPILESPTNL
- Sequence (O76202 whole entry, further chain, the tested form may be a part): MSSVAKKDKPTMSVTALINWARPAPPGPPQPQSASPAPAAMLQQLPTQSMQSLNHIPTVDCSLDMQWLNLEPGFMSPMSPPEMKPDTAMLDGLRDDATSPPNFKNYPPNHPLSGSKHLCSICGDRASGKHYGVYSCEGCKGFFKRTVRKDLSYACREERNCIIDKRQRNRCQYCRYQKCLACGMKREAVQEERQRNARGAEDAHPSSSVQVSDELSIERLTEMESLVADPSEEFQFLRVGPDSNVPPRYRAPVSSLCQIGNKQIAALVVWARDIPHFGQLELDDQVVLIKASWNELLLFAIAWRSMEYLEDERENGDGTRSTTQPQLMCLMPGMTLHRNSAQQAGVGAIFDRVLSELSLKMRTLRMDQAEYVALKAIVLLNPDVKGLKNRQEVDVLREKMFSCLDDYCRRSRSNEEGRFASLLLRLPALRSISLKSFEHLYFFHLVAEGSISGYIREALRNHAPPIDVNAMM
- ASSAY EXPLANATION: CfEcR (CDEF)/CfUSP GST fusion protein assay
- Format: binding
MEASURE: pEC50
Keep in mind that pEC50 stands for -log10 of concentration in molar terms.

Prompt: Quick check: pEC50 on CfEcR (CDEF)/CfUSP, GST fusion protein (Choristoneura fumiferana), item CCc1c(OC)cccc1C(=O)NN1C(c2cc(C)cc(C)c2)=NOC1(C)CC (stereo not shown) ?
Response: 7.85

Prompt: Quick check: pEC50 on CfEcR (CDEF)/CfUSP, GST fusion protein (Choristoneura fumiferana), item CCc1c(OC)cccc1C(=O)NN1C(c2ccccc2)=NOC1(C)CC (stereo not shown) ?
Response: 8.08

Prompt: Quick check: pEC50 on CfEcR (CDEF)/CfUSP, GST fusion protein (Choristoneura fumiferana), item CCC1(C)ON=C(c2cc(C)cc(C)c2)N1NC(=O)c1cc2ccccc2s1 (stereo not shown) ?
Response: 7.20

Prompt: Quick check: pEC50 on CfEcR (CDEF)/CfUSP, GST fusion protein (Choristoneura fumiferana), item CCc1ccc(C(=O)NN2C(c3cc(C)cc(C)c3)=NOC2(C)CC)cc1 (stereo not shown) ?
Response: 7.55

----------
Please provide measured EC50 for the entries that follow.
- TEST TARGET: CfEcR (CDEF)/CfUSP, GST fusion protein (Choristoneura fumiferana)
- ASSAY EXPLANATION: CfEcR (CDEF)/CfUSP GST fusion protein assay
- Assay type: binding
- CONDITION DESCRIPTION: GST fusion protein; read-out: CfEcR EC50
Form entry: value (nM) — number only.

Prompt: Name the reported EC50 value associated with the compound CCC1(C)ON=C(c2cc(C)cc(C)c2)N1NC(=O)Nc1ccccc1 (stereo not shown)
Response: 147

Prompt: Name the reported EC50 value associated with the compound `CCc1ccc(C(=O)NN2C(c3ccccc3)=NOC23CCCC3)cc1`
Response: 57.9

Prompt: Name the reported EC50 value associated with the compound CCC1(C)ON=C(c2cc(C)cc(C)c2)N1NC(=O)c1ccccc1 (stereo not shown)
Response: 203

Prompt: Name the reported EC50 value associated with the compound CCOC(=O)CCC(=O)NN1C(c2cc(C)cc(C)c2)=NOC1(C)CC (stereo not shown)
Response: 136
